- Test system: Aβ plaques on AD sections
- assay: Assay 1 (fluorescence based assay): direct staining of human Alzheimer's disease brain sections
- Type: binding
- Parameters: key: − (No); +/− (very weak); + (weak); ++ (good); +++ (strong)
- cond: staining intensity; compound 100 μM, frozen amygdala sections, AD Braak stage V-VI
measure_name: Staining of Aβ plaques on AD sections

Example entries begin here.
- c1cncc(-c2cc3ccc(Nc4ccc(N5CCOCC5)nc4)nc3s2)c1 [Example 66]: ++
- Fc1cncc(-c2ccc3sc(-c4ccc(N5CCCC5)nc4)cc3n2)c1 [Example 28]: +
- c1ncc(-c2cc3ccc(-c4ccc(N5CCCC5)nc4)nc3s2)cn1 [Example 35]: ++
- CNc1ccc(-c2ccc3cc(-c4ccc(C#N)cn4)sc3n2)cn1 [Example 5]: +
- FCCOC1CCN(c2ccc3cc(-c4cccnc4)sc3n2)CC1 [Example 67]: +
- O=C1COCCN1c1ccc2nc(-c3ccc(N4CCC[C@@H](F)C4)nc3)sc2c1 [Example 126]: ++
- c1cncc(-c2cc3ccc(-c4ccc(N5CCCC5)nc4)nc3s2)c1 [Example 32]: +++
- CNc1ccc(-c2ccc3cc(-c4cccnc4)sc3n2)cn1 [Example 47]: +++

Note to self: Staining of Aβ plaques on AD sections of CNc1ccc(-c2cc3ccc(Nc4ccc5c(c4)OCCO5)nc3s2)cc1 [Example 75] with Aβ plaques on AD sections was +++

Log: Aβ plaques on AD sections, molecule CN1CCN(c2ccc3nc(-c4ccc(N5CCCC5)nc4)sc3c2)C(=O)C1 [Example 69] , Staining of Aβ plaques on AD sections = +

# Staining of Aβ plaques on AD sections measured on Aβ plaques on AD sections for item c1cncc(-c2cc3ccc(Nc4ccc(N5CCOCC5)cc4)nc3s2)c1 [Example 65] = +++

Reading of Staining of Aβ plaques on AD sections for c1cncc(-c2ccc3nc(-c4ccc(N5CCCC5)nc4)sc3n2)c1 [Example 38] with Aβ plaques on AD sections: +++
